# PROTOCOL_DETAILS: Cytotoxicity against Wistar rat isolated peritoneal cells assessed as reduction in cell viability up to 60 uM measured after 30 mins
# Format: cell-based
# EXPERIMENTAL_CONDITIONS: peritoneal macrophage cell, 0.5 h
PARAMETER_MEASURED: Activity

COc1ccc(C[C@@H]2NC(=O)[C@H](Cc3cnc[nH]3)NC(=O)[C@H](CC(=O)O)NC(=O)[C@H](Cc3c[nH]c4ccc(F)cc34)NC(=O)[C@H](Cc3c[nH]c4ccc(F)cc34)NC(=O)[C@@H](C)NC(=O)[C@H](CCCCN(C)C)NC(=O)CCSCc3cccc(c3)CSCCNC(=O)[C@]3(C)CCCN3C2=O)cc1 | Non-Toxic
COc1ccc(C[C@@H]2NC(=O)[C@H](Cc3cnc[nH]3)NC(=O)[C@H](CC(=O)O)NC(=O)[C@H](Cc3c[nH]c4ccc(F)cc34)NC(=O)[C@H](Cc3c[nH]c4ccc(F)cc34)NC(=O)[C@@H](C)NC(=O)[C@H](CNC(=O)COCCOCCN)NC(=O)CCSCc3cccc(c3)CSCCNC(=O)[C@]3(C)CCCN3C2=O)cc1 | Non-Toxic

====

Numbered stars: 1 amine (or outer) side, 2 acyl side, 3 side chain; on linkers, the order of the positions; unused ones are H or OH. Bridge positions count the residues as written; N and C are the ends. Square brackets hold non-standard residues; d marks the D form. Peptide text beside a SMILES is read from it. Trp(5-F) = N[C@@H](Cc1c[nH]c2ccc(F)cc12)C(=O)O; mXylylene = c1cc(C[*:1])cc(C[*:2])c1; αMeP = C[C@@]1(C(=O)O)CCCN1; Mpa = O=C(O)CCS
Lab note: pKi readings collected with Proprotein convertase subtilisin/kexin type 9 (Homo sapiens, UniProt Q8NBP7) for the following compounds.
Sequence (Q8NBP7 31-152 limits assumed): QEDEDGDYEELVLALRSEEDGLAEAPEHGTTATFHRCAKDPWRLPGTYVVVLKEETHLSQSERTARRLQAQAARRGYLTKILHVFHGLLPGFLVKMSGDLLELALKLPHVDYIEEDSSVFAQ
Sequence (Q8NBP7 153-692 limits assumed): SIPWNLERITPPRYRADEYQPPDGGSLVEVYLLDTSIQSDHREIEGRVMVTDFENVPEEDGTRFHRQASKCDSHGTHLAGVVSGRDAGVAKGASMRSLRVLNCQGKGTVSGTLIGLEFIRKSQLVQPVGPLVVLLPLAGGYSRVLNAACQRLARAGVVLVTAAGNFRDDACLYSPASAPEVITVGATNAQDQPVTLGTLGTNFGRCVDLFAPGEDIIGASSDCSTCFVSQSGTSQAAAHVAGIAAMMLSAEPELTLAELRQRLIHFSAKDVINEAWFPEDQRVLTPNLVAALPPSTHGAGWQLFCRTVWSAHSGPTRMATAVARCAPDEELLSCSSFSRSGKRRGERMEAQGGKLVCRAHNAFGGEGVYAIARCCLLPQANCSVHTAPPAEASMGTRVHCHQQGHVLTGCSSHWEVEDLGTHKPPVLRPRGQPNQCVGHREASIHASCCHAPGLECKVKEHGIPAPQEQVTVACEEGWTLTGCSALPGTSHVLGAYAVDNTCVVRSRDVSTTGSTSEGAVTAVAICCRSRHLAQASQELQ
Keep it numeric: pKi is minus log10 of the concentration in mol/L.

What pKi value was documented for this compound, C[C@@H](O)[C@@H]1NC(=O)[C@@H]2CCCN2C(=O)[C@H](Cc2c[nH]c3ccc(F)cc23)NC(=O)[C@H](Cc2c[nH]c3ccc(F)cc23)NC(=O)CNC(=O)[C@H](CCCCN)NC(=O)CCSCc2cccc(c2)CSC[C@@H](C(N)=O)NC(=O)[C@]2(C)CCCN2C(=O)[C@H](Cc2ccc(O)cc2)NC1=O ([Mpa]KG[Trp(5-F)][Trp(5-F)]PTY[αMeP]C-NH2; linker 1-10 via mXylylene) ?
7.93

What measured pKi goes with `COc1ccc(C[C@@H]2NC(=O)[C@H]([C@@H](C)OC)NC(=O)[C@@H]3CCC(=O)NCc4cccc(c4)C[C@H](NC(=O)[C@@H](C)NC(=O)[C@H](C)NC(=O)CCSCc4cccc(c4)CSCCNC(=O)[C@]4(C)CCCN4C2=O)C(=O)N[C@@H](Cc2c[nH]c4ccc(F)cc24)C(=O)N3C)cc1` ?
7.97

====

# PROTOCOL_DETAILS: Clearance in C57BL/6 mouse at 1 mg/kg, iv by LC-MS/MS analysis
# Assay type: ADME, organism-based
# EXPERIMENTAL_CONDITIONS: in vivo
Numbered stars: 1 amine (or outer) side, 2 acyl side, 3 side chain; on linkers, the order of the positions; unused ones are H or OH. Bridge positions count the residues as written; N and C are the ends. Square brackets hold non-standard residues; d marks the D form. Peptide text beside a SMILES is read from it. Trp(5-F) = N[C@@H](Cc1c[nH]c2ccc(F)cc12)C(=O)O; Lys(Me3) = C[N+](C)(C)CCCC[C@H](N)C(=O)O; X1 = O=C(CCSCc1cccc(CSCCN[*:1])c1)[*:2]; mXylylene = c1cc(C[*:1])cc(C[*:2])c1; αMeP = C[C@@]1(C(=O)O)CCCN1; Mpa = O=C(O)CCS
PARAMETER_MEASURED: clearance (mL/min/kg)
Give just the numeric value; mL/min/kg need not be written.

Given C[C@@]12CCCN1C(=O)[C@H](Cc1ccc(O)cc1)NC(=O)[C@H](Cc1cnc[nH]1)NC(=O)[C@H](CC(=O)O)NC(=O)[C@H](Cc1c[nH]c3ccc(F)cc13)NC(=O)[C@H](Cc1c[nH]c3ccc(F)cc13)NC(=O)CNC(=O)[C@H](CCCCN)NC(=O)CCSCc1cccc(c1)CSC[C@@H](C(N)=O)NC2=O ([Mpa]KG[Trp(5-F)][Trp(5-F)]DHY[αMeP]C-NH2; linker 1-10 via mXylylene) , state its recorded clearance.
65.4

Reported clearance, compound COc1ccc(C[C@@H]2NC(=O)[C@H](Cc3cnc[nH]3)NC(=O)[C@H](CC(=O)O)NC(=O)[C@H](Cc3c[nH]c4ccc(F)cc34)NC(=O)[C@H](Cc3c[nH]c4ccc(F)cc34)NC(=O)[C@@H](C)NC(=O)[C@H](CCCC[N+](C)(C)C)NC(=O)CCSCc3cccc(c3)CSCCNC(=O)[C@]3(C)CCCN3C2=O)cc1 (cyclo(DHY(Me)[αMeP][X1][Lys(Me3)][dA][Trp(5-F)][Trp(5-F)])) : ____
6.2

// query clearance value for entry `NCCCC[C@@H]1NC(=O)CCSCc2cccc(c2)CSC[C@@H](C(N)=O)NC(=O)[C@@H]2CCCN2C(=O)[C@H](Cc2ccc(O)cc2)NC(=O)[C@H](Cc2c[nH]cn2)NC(=O)[C@H](CC(=O)O)NC(=O)[C@H](Cc2c[nH]c3ccc(F)cc23)NC(=O)[C@H](Cc2c[nH]c3ccc(F)cc23)NC(=O)CNC1=O`
51.7

====

Hi there, I'd appreciate the recorded remaining at 1 h, 100 µM for every entry that follows.
# SYSTEM_NAME: Chymotrypsin-like elastase family member 1 (Sus scrofa)
# Sequence (P00772 whole entry): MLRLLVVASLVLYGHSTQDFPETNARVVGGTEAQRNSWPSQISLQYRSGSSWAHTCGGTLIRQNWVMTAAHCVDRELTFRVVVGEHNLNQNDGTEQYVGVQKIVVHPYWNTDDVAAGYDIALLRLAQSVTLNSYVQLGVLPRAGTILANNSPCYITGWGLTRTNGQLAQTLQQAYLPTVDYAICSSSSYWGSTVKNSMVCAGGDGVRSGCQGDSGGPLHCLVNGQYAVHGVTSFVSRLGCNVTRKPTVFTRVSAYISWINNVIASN
# PROTOCOL_DETAILS: Enzymatic stability assessed as porcine type 4 pancreatic elastase-mediated compound hydrolysis by measuring parent compound remaining at 100 uM incubated for 1 hr by LC-MS/MS analysis
# Type: ADME
# EXPERIMENTAL_CONDITIONS: pig, read-out: Stabilty
Numbered stars: 1 amine (or outer) side, 2 acyl side, 3 side chain; on linkers, the order of the positions; unused ones are H or OH. Bridge positions count the residues as written; N and C are the ends. Square brackets hold non-standard residues; d marks the D form. Peptide text beside a SMILES is read from it. * marks the point of attachment. Trp(5-F) = N[C@@H](Cc1c[nH]c2ccc(F)cc12)C(=O)O; X1 = O=C(CCSCc1cccc(CSCCN[*:1])c1)[*:2]; mXylylene = c1cc(C[*:1])cc(C[*:2])c1; αMeP = C[C@@]1(C(=O)O)CCCN1; X2 = COCCOCCOCCOCCC(=O)*; Mpa = O=C(O)CCS
Report as a plain number; the unit % is understood.

# query: remaining at 1 h, 100 µM of entry COCCOCCOCCOCCC(=O)NCCCC[C@@H]1NC(=O)CCSCc2cccc(c2)CSC[C@@H](C(N)=O)NC(=O)[C@]2(C)CCCN2C(=O)[C@H](Cc2ccc(O)cc2)NC(=O)[C@H](Cc2cnc[nH]2)NC(=O)[C@H](CC(=O)O)NC(=O)[C@H](Cc2c[nH]c3ccc(F)cc23)NC(=O)[C@H](Cc2c[nH]c3ccc(F)cc23)NC(=O)CNC1=O ([Mpa]K(X2)G[Trp(5-F)][Trp(5-F)]DHY[αMeP]C-NH2; linker 1-10 via mXylylene)
96.3

Request the reported remaining at 1 h, 100 µM associated with `CC(C)[C@H]1NC(=O)[C@H](CCCCN)NC(=O)CCSCc2cccc(c2)CSCCNC(=O)[C@]2(C)CCCN2C(=O)[C@H](Cc2ccc(O)cc2)NC(=O)[C@H](Cc2cnc[nH]2)NC(=O)[C@H](CC(=O)O)NC(=O)[C@H](Cc2c[nH]c3ccc(F)cc23)NC(=O)[C@H](Cc2c[nH]c3ccc(F)cc23)NC1=O`
100

For the compound `C[C@H]1NC(=O)[C@H](CCCCN)NC(=O)CCSCc2cccc(c2)CSC[C@@H](C(N)=O)NC(=O)[C@]2(C)CCCN2C(=O)[C@H](Cc2ccc(O)cc2)NC(=O)[C@H]([C@@H](C)O)NC(=O)[C@@H]2C[C@H](F)CN2C(=O)[C@H](Cc2c[nH]c3ccc(F)cc23)NC(=O)[C@H](Cc2c[nH]c3ccc(F)cc23)NC1=O` , what remaining at 1 h, 100 µM is on record?
100

Looking for the measured remaining at 1 h, 100 µM of C[C@@]12CCCN1C(=O)[C@H](Cc1ccc(O)cc1)NC(=O)[C@H](Cc1cnc[nH]1)NC(=O)[C@H](CC(=O)O)NC(=O)[C@H](Cc1c[nH]c3ccc(F)cc13)NC(=O)[C@H](Cc1c[nH]c3ccc(F)cc13)NC(=O)CNC(=O)[C@H](CCCCN)NC(=O)CCSCc1cccc(c1)CSC[C@@H](C(N)=O)NC2=O ([Mpa]KG[Trp(5-F)][Trp(5-F)]DHY[αMeP]C-NH2; linker 1-10 via mXylylene) , can you help?
52.7

Data request, read-out remaining at 1 h, 100 µM, for C[C@@H](O)[C@@H]1NC(=O)[C@@H]2CCCN2C(=O)[C@H](Cc2c[nH]c3ccc(F)cc23)NC(=O)[C@H](Cc2c[nH]c3ccc(F)cc23)NC(=O)CNC(=O)[C@H](CCCCN)NC(=O)CCSCc2cccc(c2)CSC[C@@H](C(N)=O)NC(=O)[C@]2(C)CCCN2C(=O)[C@H](Cc2ccc(O)cc2)NC1=O ([Mpa]KG[Trp(5-F)][Trp(5-F)]PTY[αMeP]C-NH2; linker 1-10 via mXylylene)
51

Item `COc1ccc(C[C@@H]2NC(=O)[C@H]([C@@H](C)OC)NC(=O)[C@@H]3CCC(=O)NCc4cccc(c4)C[C@H](NC(=O)[C@@H](C)NC(=O)[C@H](C)NC(=O)CCSCc4cccc(c4)CSCCNC(=O)[C@]4(C)CCCN4C2=O)C(=O)N[C@@H](Cc2c[nH]c4ccc(F)cc24)C(=O)N3C)cc1` has what recorded remaining at 1 h, 100 µM?
98.8

Please report the recorded remaining at 1 h, 100 µM for CO[C@H](C)[C@@H]1NC(=O)[C@@H]2CCCN2C(=O)[C@H](Cc2c[nH]c3ccc(F)cc23)NC(=O)[C@H](Cc2c[nH]c3ccc(F)cc23)NC(=O)CNC(=O)[C@H](CCCCN)NC(=O)CCSCc2cccc(c2)CSC[C@@H](C(N)=O)NC(=O)[C@]2(C)CCCN2C(=O)[C@H](Cc2ccc(O)cc2)NC1=O ([Mpa]KG[Trp(5-F)][Trp(5-F)]PT(Me)Y[αMeP]C-NH2; linker 1-10 via mXylylene) .
56

Fill in: remaining at 1 h, 100 µM of C[C@@]12CCCN1C(=O)[C@H](Cc1ccc(O)cc1)NC(=O)[C@H](Cc1cnc[nH]1)NC(=O)[C@H](CC(=O)O)NC(=O)[C@H](Cc1c[nH]c3ccc(F)cc13)NC(=O)[C@H](Cc1c[nH]c3ccc(F)cc13)NC(=O)CNC(=O)[C@H](CCCCN)NC(=O)CCSCc1cccc(c1)CSCCNC2=O (cyclo(DHY[αMeP][X1]KG[Trp(5-F)][Trp(5-F)])) is ___
46.1

I am curious: what remaining at 1 h, 100 µM value has been reported for `C[C@H]1NC(=O)[C@H](CCCCN)NC(=O)CCSCc2cccc(c2)CSCCNC(=O)[C@]2(C)CCCN2C(=O)[C@H](Cc2ccc(O)cc2)NC(=O)[C@H](Cc2cnc[nH]2)NC(=O)[C@H](CC(=O)O)NC(=O)[C@H](Cc2c[nH]c3ccc(F)cc23)NC(=O)[C@H](Cc2c[nH]c3ccc(F)cc23)NC1=O` ?
99.1

Data provenance is ChEMBL document CHEMBL4699634.
